Source listed as paper PMC8540642.

Test system: OVCAR-3 cells
Assay: MTT cell viability, dose-response curves 24 h
Type: cell-based
Conditions: Homo sapiens, OVCAR-3; MTT, 24 h; value in brackets; read-out: IC50 (half-maximal inhibitory concentration), OVCAR-3
observedProperty: log10(IC50) (log10 of the value in µM)

compound	log10(IC50)
O=c1c(O)c(-c2ccc(O)c(O)c2)oc2cc(O)cc(O)c12	2.82
O=C(O)c1cc(O)c(O)c(O)c1	2.40
CC(=O)O[C@H]1C(=O)[C@@]2(C)[C@H]([C@H](OC(=O)c3ccccc3)[C@]3(O)C[C@H](OC(=O)[C@H](O)[C@@H](NC(=O)c4ccccc4)c4ccccc4)C(C)=C1C3(C)C)[C@]1(OC(C)=O)CO[C@@H]1C[C@@H]2O [Paclitaxel, paclitaxel, reference compound]	0.97
O=c1c(O)c(-c2cc(O)c(O)c(O)c2)oc2cc(O)cc(O)c12	2.47
O=c1c(O)c(-c2ccc(O)c(O)c2)oc2cc(O)ccc12	2.84
